system: PC-3 prostate
Labels: 1 (active), 0 (inactive)

INSERT INTO assay_data (molecule, target_of_assay, qualitative_label) VALUES
  ('COc1cc(CNC(=O)/C=C/C=C/c2ccc3c(c2)OCO3)ccc1OCc1cn(-c2ccc(Cl)c(Cl)c2)nn1', 'PC-3 prostate', 0),
  ('Clc1ccc(-c2nc3c(-c4ccc(Cl)cc4)nc(-c4ccccc4)cn3c2-c2ccc(Cl)cc2)cc1', 'PC-3 prostate', 0),
  ('CSc1ccc2c(c1)c(CCN)c(C)n2Cc1ccc(Cl)c(Cl)c1', 'PC-3 prostate', 0),
  ('N#Cc1ccc(Oc2nccc(-c3c(-c4ccc(F)cc4)ncn3C3CCNCC3)n2)cc1', 'PC-3 prostate', 0),
  ('C=CCN1C(=O)/C(=c2\sc3n(c2=O)C2C(NN=3)N(CC)C(=O)N2CC)c2ccccc21 (centres undefined)', 'PC-3 prostate', 0),
  ('CC(C)=CC/C=C(/C)[C@H]1CC[C@]2(C)[C@@H]1CC[C@@H]1[C@@]3(C)CCC(=O)NC(C)(C)[C@@H]3CC[C@]12C', 'PC-3 prostate', 0),
  ('CC/C(=N\Nc1nc2ccccc2n1C)c1ccccn1', 'PC-3 prostate', 1),
  ('Nc1nc(N)c2cc(CNc3ccc(Cl)c(Cl)c3)ccc2n1', 'PC-3 prostate', 1),
  ('COc1cc2c(cc1OCCCCNC(=O)c1cc3ccccc3[nH]1)N=CC1CCCN1C2=O (centres undefined)', 'PC-3 prostate', 0);
